Entries and their inhibition values follow.
- test name: inhibitors of HIV fusion peptide binding, primary screen, biochemical, uHTS, fluorescence dequenching (AID 1986)
- experimental context: cell-free peptide binding, 30 min, measured here: repeat confirmation average inhibition, at 18.6 µM, stronger effect = higher value
About 890 (0.31%) of roughly 290,000 compounds were called active. Only a selection was taken, and actives are over-represented in it overall.
observation type: inhibition (%)

CC(=O)NS(=O)(=O)c1ccc(N=c2ssc3c2-c2cc(C)c(C)cc2NC3(C)C)cc1 : 11.3
C[n+]1ccc(/C=C/c2c[nH]c3ccc(F)cc23)cc1 : 85.8
CCOc1ccc(-c2nn(-c3ccccc3)cc2/C=C2\SC(=S)N(C3CCS(=O)(=O)C3)C2=O)cc1 (stereo not given) : 85
COc1ccc2nc(C)cc(NCc3ccc(F)cc3)c2c1 : 53
COc1cc(/C=C2/C(=N)N3C(=NC2=O)SN=C3S(C)(=O)=O)ccc1OC(=O)c1ccco1 : 49.7
O=C(O)C(c1ccccc1)N1C(=O)/C(=C\c2ccc(-c3cccc(Cl)c3)o2)SC1=S (stereo not given) : 120
O=C(Nc1cccc(S(=O)(=O)N2CCCCC2)c1)c1ccccc1NS(=O)(=O)c1ccc(F)cc1 : 26
CCN1C(=O)/C(=C/N2CCc3ccccc32)SC1=S : 63
Cc1ccc(-c2nc3sc(C#N)c(N)n3c(=O)c2C#N)cc1 : 52.2
O=C(O)C(c1ccccc1)N1C(=O)/C(=C\c2ccc(-c3ccccc3Cl)o2)SC1=S (stereo not given) : 110

---

- test name: inhibitors of HIV fusion peptide binding, primary screen, biochemical, uHTS, fluorescence dequenching (AID 1986)
- experimental context: cell-free peptide binding, 30 min, at 20 µM, stronger effect = higher value
Screen size: about 290,000 compounds; about 890 (0.31%) were called active. The entries come from a sample that favours actives as a whole.
observation type: inhibition (%)

O=C(Nc1ccc([N+](=O)[O-])cn1)C1CC2CCC1C2 (configuration not stated) : 1.2
Cc1ccc(-n2c3c(cc(C(=O)NC4CCSC4=O)c2=O)C(=O)CCC3)cc1 (configuration not stated) : -1.5
COc1c(Br)cc(Br)cc1/C=N/NC(=O)c1ccncc1 : -1
N=C1S/C(=C\c2ccc(-c3cccc(Cl)c3)o2)C(=O)N1c1nccs1 : 68.1
O=C(COC(=O)CCCOc1ccccc1)NNC(=O)c1ccc([N+](=O)[O-])cc1 : -0.7
COc1ccc2nc(C)cc(NCc3cccc(C(F)(F)F)c3)c2c1 : -0.7
CCCCN(CCCC)C(=O)c1cc2ccccc2c(=O)o1 : -1.7
Fc1ccc(CSc2ccc(-c3ccc4c(c3)OCO4)nn2)cc1 : -3.7
CCOC(=O)C1=C(C)NC(=O)NC1c1ccc(OCC(=O)OC)c(OC)c1 (configuration not stated) : -0.4
CCOc1cccc(-c2nnc(SCC(=O)Nc3ccc(OC)c(OC)c3)n2N)c1 : -0.9
O=C1/C(=C/c2ccc(N3CCOCC3)o2)SC(=Nc2ccccc2)N1CCc1c[nH]c2ccccc12 : 37.2
CCn1ncc(Cl)c1C(=O)Nc1cc([N+](=O)[O-])ccc1OC : 0.4
O=C(Cn1cnc2c(nnn2Cc2ccc(F)cc2)c1=O)Nc1cccc(F)c1 : 3.6
O=C(O)COc1ccc(/C=C2\SC(=Nc3ccccc3)N(c3ccccc3)C2=O)cc1 : 36.9
COC(=O)c1ccccc1NC(=O)COC(=O)[C@H](C)NC(N)=O : -2.5
O=C(N/N=C/c1c(F)c(F)c(F)c(F)c1F)c1cccc(S(=O)(=O)N2CCOCC2)c1 : 0.1
COc1cc(/C=C2\SC(=Nc3ccc(N4CCOCC4)cc3)N(C)C2=O)ccc1OC(C)C(=O)O (configuration not stated) : 0.3
Cc1ccc(S(=O)(=O)Cc2cn3cccnc3n2)cc1 : -2.2
NCCCNc1ccc([N+](=O)[O-])cc1C(F)(F)F : 0.6
O=C(COC(=O)c1ccc([N+](=O)[O-])s1)NC(c1ccccc1)c1ccccc1 : 0
CSc1cccc(NC(=O)CCCOc2ccccc2)c1 : -0.1
COc1cc(/C=N/NC(=O)c2cccc(S(=O)(=O)N3CCOCC3)c2)cc(OC)c1O : -3.4
